system: IR (Homo sapiens)
procedure details: Phage ELISA, binding of phage clones to IR (ratio over background)
condition details: ratio of IR divided by ratio of IGF-1R
parameter: Comparisons IR/IGF-1R

- substance: "EGSGFYGYFFSLLGLQG [NNRPγ-4-A9-IR]"
  system: "IR (Homo sapiens)"
  parameter: "Comparisons IR/IGF-1R"
  endpoint value: 0.1
- substance: "SQAGSAFYAWFDQVLRTVHSA [20E2Bβ-4-G6-IR]"
  system: "IR (Homo sapiens)"
  parameter: "Comparisons IR/IGF-1R"
  endpoint value: 0.3

P: RCEEKQAEVGPSSDPFYHKMSELLGCR [Peptide B6Hα-3-E9-IR]
Q: SSIGGGEHENFYDWFSRQLSQSPPLK [H2CA-4-F7-IGFR]
Task: Larger number for Comparisons IR/IGF-1R: P , or Q ? Output the label that corresponds to your choice.
Output: Q
(Q: 0.2, P: 0.1)

1: VERSASSQDGNFYDWFVVQIR [Peptide A6S-2-D1-IR]
2: LSCLAYSRHGIWRPSTDLGLGRSVGEGSVSTRWRGYDWFE [40F-4-D1-IGFR]
Task: Larger number for Comparisons IR/IGF-1R: 1 , or 2 ? Output the label that corresponds to your choice.
Output: 1
(1: 0.4, 2: 0.1)

a: DRDFCRFYERLTALVGGQVDGGWPC [20C-3-F6-IGFR]
b: EAASLGSQDRNFYDWFVRQVV [Peptide A6S-2-D11-IR]
Task: Quick one: lower Comparisons IR/IGF-1R, a or b ? Output the label that corresponds to your choice.
Output: a

I: QSPVGSSHEDFYDWFFRQVAQSGAHQ [H2CA-3-D6-IGFR]
II: PGTDLGFYQALRCVVIQGACD [20E2B-2-B2-IGFR]
III: GCAVVEEAERSRGDPFYHKLSELIQGC [Peptide B6Hα-3-E7-IR]
IV: VDTPAQVGWNRLWSVGPGEHWYTDDPFYH*LSELLRESGA [Peptide B6L-3-G6-IR]
Task: # rank by Comparisons IR/IGF-1R, ascending (min first) Please express your ranking as an ordered list of the labels.
Output: II, III, I, IV

###

system: IGF-1R (Homo sapiens, UniProt P08069)
procedure details: Phage ELISA, binding of phage clones to IGF-1R (ratio over background)
condition details: ratio of IGF-1R divided by ratio of IR
parameter: Comparisons IGF-1R/IR

I: YSCGDGFYSLLSDLLGGQFRC [20E2B-4-H12-IGFR]
II: RCGRELYHSTFYDWFDRQVAGRTCPS [H2CA-1-A7-IGFR]
III: HLADGQFHEKFYDWFERQISSRCNDC [H2CA-3-E11-IGFR]
IV: LSSDGQFYRALNLLLQGSAGR [20E2B-2-B7-IGFR]
Task: # rank above entries by Comparisons IGF-1R/IR (max first, min last) Please express your ranking as an ordered list of the labels.
Output: I, IV, II, III

P: TLRSPTFYDWLEMVLTHGQGG [20E2B-1-A8-IGFR]
Q: YRGMLVLGRISDGAG#VASEPPARIGRKVFAVNFYDWFV [Peptide A6L-0-E4-IR]
R: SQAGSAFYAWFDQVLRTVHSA [20E2Bβ-4-G6-IR]
S: GHYFGSFYDAIDQLVAGMLPG [20E2A-3-A3-IGFR]
Task: # rank by Comparisons IGF-1R/IR, ascending (min first) Please express your ranking as an ordered list of the labels.
Output: S, R, P, Q
(S: 1.9, R: 3.3, P: 5.0, Q: 13.0)

1: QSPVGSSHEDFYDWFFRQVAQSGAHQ [H2CA-3-D6-IGFR]
2: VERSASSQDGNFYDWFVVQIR [Peptide A6S-2-D1-IR]
Task: Quick one: lower Comparisons IGF-1R/IR, 1 or 2 ? Output the label that corresponds to your choice.
Output: 2

###

Test system: FDC-P2 cells expressing the IL-3 and human IGF-1R receptors
procedure details: IGF-1 proliferation assay in FDC-P2 cells, antagonist format
condition details: read-out: ED50, antagonist activity at IGF-1R; FDC-P2 cells, 10 ng/ml IGF-1 test medium
pEC50: −log10 of the molar value.
parameter: pEC50

Sure, the documented pEC50 for GSLDESFYDWFERQLGKK [Peptide S371] is ~5.15

###

system: IGF-1R (Homo sapiens, UniProt P08069)
procedure details: Phage ELISA, binding of phage clones to IGF-1R (ratio over background)
condition details: ratio of IGF-1R divided by ratio of IR
parameter: Comparisons IGF-1R/IR

The cases that follow already have their Comparisons IGF-1R/IR on record.
- substance: "VDTPAQVGWNRLWSVGPGEHWYTDDPFYH*LSELLRESGA [Peptide B6L-3-G6-IR]"
  Comparisons IGF-1R/IR: 1.4
- substance: "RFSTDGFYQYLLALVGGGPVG [20E2B-1-A11-IGFR]"
  Comparisons IGF-1R/IR: 9.7
- substance: "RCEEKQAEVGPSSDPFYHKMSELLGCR [Peptide B6Hα-3-E9-IR]"
  Comparisons IGF-1R/IR: 14.2
- substance: "GAPVDQLHEDFYDWFVRQVSQAATG [H2CA-2-B2-IGFR]"
  Comparisons IGF-1R/IR: 3.5
- substance: "PAGPCGFYCGLGLLLHGDQSP [20E2B-4-H8-IGFR]"
  Comparisons IGF-1R/IR: 5.9

A: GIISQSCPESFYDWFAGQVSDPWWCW [H2CA-4-G9-IGFR]
B: VNQSGSIHENFYDWFERQVSHQRGVR [H2CA-4-F10-IGFR]
Task: Larger number for Comparisons IGF-1R/IR: A , or B ? Output the label that corresponds to your choice.
Output: A

###

system: IR (Homo sapiens, UniProt P06213)
procedure details: Phage ELISA, binding of phage clones to IR (ratio over background)
condition details: ratio of IR divided by ratio of IGF-1R
parameter: Comparisons IR/IGF-1R

- chain sequence: "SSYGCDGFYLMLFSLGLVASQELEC [20C-3-A1-IGFR]"
  system: "IR (Homo sapiens, UniProt P06213)"
  Comparisons IR/IGF-1R: 0.1

a: IQQELTFYDLLHRLVRSELGS [20E2B-3-D2-IGFR]
b: AGSVTSFYDAMEQLVATGTSA [20E2A-3-A4-IGFR]
c: GRTMAVMAAGGPDDPFYHKLSELVQGG [Peptide B6Hα-2-D6-IR]
d: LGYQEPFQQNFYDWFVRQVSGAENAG [H2CA-3-E8-IGFR]
Task: Output the entries ranked by Comparisons IR/IGF-1R from maximum down to minimum. Please express your ranking as an ordered list of the labels.
Output: b, d, c, a
(b: 0.7, d: 0.3, c: 0.2, a: 0.1)

###

system: IR (Homo sapiens, UniProt P06213)
procedure details: Phage ELISA, binding of phage clones to IR (ratio over background)
condition details: ratio of IR divided by ratio of IGF-1R
parameter: Comparisons IR/IGF-1R

The cases that follow already have their Comparisons IR/IGF-1R on record.
- substance: "LKDGFYDYFWQRLHLGS [NNRPγ-4-B11-IR]"
  endpoint value: 0.1
- substance: "NSRDGGFYLQLERLLGFPVTG [20E2B-3-D4-IGFR]"
  endpoint value: 0.1
- substance: "FYVQQWGHENFYDWFDRQVSQSGGAG [H2CA-4-F1-IGFR]"
  endpoint value: 0.3
- substance: "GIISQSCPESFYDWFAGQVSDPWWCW [H2CA-4-G9-IGFR]"
  endpoint value: 0.1
- substance: "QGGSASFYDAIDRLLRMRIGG [20E2A-4-F11-IGFR]"
  endpoint value: 0.1

A: GVRAMSFYDALVSVLGLGPSG [20E2B-1-A6-IGFR]
B: FRTLAAQHDSFYDWFDRQVSGAAGER [H2CA-3-C11-IGFR]
C: RFDPFYSYFVNLLGASA [NNRPγ-4-A7-IR]
D: SSETAKMVTGTRDDPFYHKLSELVQGS [Peptide B6Hα-D8-IR]
Task: # rank by Comparisons IR/IGF-1R, ascending (min first) Please express your ranking as an ordered list of the labels.
Output: A, C, D, B
(A: 0.1, C: 0.2, D: 0.3, B: 0.5)

a: YRGMLVLGRISDGAG#VASEPPARIGRKVFAVNFYDWFV [Peptide A6L-0-E4-IR]
b: CGAKMTGTPNDPFYHKLSELLQRG [Peptide B6Hα-3-E6-IR]
c: SSCDGAGHESFYEWFVRQVSGCRSV [H2CA-3-C8-IGFR]
Task: Output the entries ranked by Comparisons IR/IGF-1R from maximum down to minimum. Please express your ranking as an ordered list of the labels.
Output: b, c, a
(b: 0.5, c: 0.2, a: 0.1)

###

system: IGF-1R (Homo sapiens, UniProt P08069)
procedure details: Phage ELISA, binding of phage clones to IGF-1R (ratio over background)
condition details: ratio of IGF-1R divided by ratio of IR
No end group written: not given here.
parameter: Comparisons IGF-1R/IR

The cases that follow already have their Comparisons IGF-1R/IR on record.
- substance: "MNVFVSFYDAIDQLVCQRIGC [20E2A-4-G11-IGFR]"
  endpoint value: 2.6
- substance: "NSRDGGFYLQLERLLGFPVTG [20E2B-3-D4-IGFR]"
  endpoint value: 9.6
- substance: "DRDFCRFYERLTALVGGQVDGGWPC [20C-3-F6-IGFR]"
  endpoint value: 14.1
- substance: "SSETAKMVTGTRDDPFYHKLSELVQGS [Peptide B6Hα-D8-IR]"
  endpoint value: 3.0
- substance: "SSIGGGEHENFYDWFSRQLSQSPPLK [H2CA-4-F7-IGFR]"
  endpoint value: 4.1

P: RCQGTGFYTCIQELIGFGDPD [20E2B-4-H9-IGFR]
Q: RCGRW*AEMGAGDDPFYHKLSELVCG (RCGRWXAEMGAGDDPFYHKLSELVCG; not fully specified; X: residue not identified in the source; cysteine pairing not given here) [Peptide B6Hα-2-C4-IR]
Task: Larger number for Comparisons IGF-1R/IR: P , or Q ? Output the label that corresponds to your choice.
Output: Q
